tgt: Recombinant human MASP2 enzyme (fragment corresponding to amino acids 297-686, C-terminal His Tag) (human, UniProt O00187 297-686)
Sequence (O00187 other isoform, or with tags, fused parts or gaps limits assumed): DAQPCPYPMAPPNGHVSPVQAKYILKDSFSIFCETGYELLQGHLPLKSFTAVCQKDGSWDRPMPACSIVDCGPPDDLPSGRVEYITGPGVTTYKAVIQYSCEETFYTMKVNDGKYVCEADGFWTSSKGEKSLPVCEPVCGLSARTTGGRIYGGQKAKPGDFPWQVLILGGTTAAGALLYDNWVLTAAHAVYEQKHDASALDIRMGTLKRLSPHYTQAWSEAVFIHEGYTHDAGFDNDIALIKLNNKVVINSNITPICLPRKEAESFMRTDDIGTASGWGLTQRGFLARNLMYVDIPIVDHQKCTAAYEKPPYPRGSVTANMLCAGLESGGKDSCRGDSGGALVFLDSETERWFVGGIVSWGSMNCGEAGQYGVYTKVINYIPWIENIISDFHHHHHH
assayProtocol: cell-based or functional assay
Bridge positions count the residues as written; N and C are the ends. Square brackets hold non-standard residues; d marks the D form. Ends that are not written are not given here. aIle = CC[C@@H](C)[C@H](N)C(=O)O; tBuAla = CC(C)(C)C[C@H](N)C(=O)O; NMeC = CN[C@@H](CS)C(=O)O; Sar = CNCC(=O)O
human MASP2 IC50 for assorted binders
Write the number in nM without appending the unit.

binder	unitSymbol	observedMeasurement
[Sar]ICSRSLPPIC[aIle]PD-NH2 (disulfide 3-11; N-terminus assumed; SMILES CC[C@@H](C)[C@H](NC(=O)[C@@H]1CSSC[C@H](NC(=O)[C@@H](NC(=O)CNC)[C@@H](C)CC)C(=O)N[C@@H](CO)C(=O)N[C@@H](CCCNC(=N)N)C(=O)N[C@@H](CO)C(=O)N[C@@H](CC(C)C)C(=O)N2CCC[C@H]2C(=O)N2CCC[C@H]2C(=O)N[C@@H]([C@@H](C)CC)C(=O)N1)C(=O)N1CCC[C@H]1C(=O)N[C@@H](CC(=O)O)C(N)=O) [((N-Me)G)-IC+SRSLPPIC+(allo-I)-PD-NH2]	nM	170

Let's switch to this binder now.
*Q* Quote human MASP2 IC50 reported for WICSRS[tBuAla]PPI[NMeC]I-NH2 (disulfide 3-11; N-terminus assumed; SMILES CC[C@H](C)[C@H](NC(=O)[C@@H]1CSSC[C@H](NC(=O)[C@@H](NC(=O)[C@@H](N)Cc2c[nH]c3ccccc23)[C@@H](C)CC)C(=O)N[C@@H](CO)C(=O)N[C@@H](CCCNC(=N)N)C(=O)N[C@@H](CO)C(=O)N[C@@H](CC(C)(C)C)C(=O)N2CCC[C@H]2C(=O)N2CCC[C@H]2C(=O)N[C@@H]([C@@H](C)CC)C(=O)N1C)C(N)=O) [WIC+SRS-((tBu)A)-PPI-((N-Me)C)+I-NH2] please.
*A* 120
